All values here come from ChEMBL document CHEMBL1121366.

# Assay Summary: Acute lethal dose was determined in mice upon intravenous administration
# Format: ADME, organism-based
# Settings: mouse, in vivo
Some compounds, each annotated with its measured LD50.

{"columns": ["Compound", "LD50 (mg/kg)"],
 "data": [
  ["C[C@@H]1SC2=NC3c4ccccc4CCC3N2[C@@]1(O)c1ccccc1 (stereo partly drawn)", 170],
  ["c1ccc([C@H]2CN3CCSC3=N2)cc1", 15],
  ["c1ccc2c(c1)CCC1N=C3SCCN3C21 (stereo in doubt)", 20]
]}

====

Some molecules, each annotated with its measured LD50.
# System: Mus musculus
# Assay Summary: Acute lethal dose was determined in mice upon subcutaneous administration
# Type: ADME, organism-based
# Settings: in vivo, sc
Parameter: LD50 (mg/kg)

{"columns": ["Molecule", "Target Under Test", "Quantitative Result"],
 "data": [
  ["c1ccc2c(c1)CCC1C2N=C2SCCN21 (stereo in doubt)", "Mus musculus", 116],
  ["c1ccc2c(c1)CCC1N=C3SCCN3C21 (stereo in doubt)", "Mus musculus", 68],
  ["c1ccc2c(c1)CCC1C2N=C2SCCN21 (trans isomer)", "Mus musculus", 320],
  ["c1ccc2c(c1)CCC1N=C3SCCN3C21 (trans isomer)", "Mus musculus", 190]
]}
